Sourced from the supplement of paper PMC10567573

B1: ZNF232 (parent)
chain: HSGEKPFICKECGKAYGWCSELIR

# Variants of: B1
# TEST: protein stability index of a GFP-peptide fusion (GPS, HEK-293T) (PSI 1-6); higher = more stable;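 also: lentivirally expressed fusions sorted by FACS into six bins by GFP to DsRed ratio, PSI derived from sequencing read proportions per bin multiplied by bin number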
# TEST SETTINGS: c terminus: a fixed tail appended
Returns one of class 1 or class 0; class 1 when protein stability index is >= 2.

Recorded results for 4 variants are shown here.
E11T = class 1
E21D = class 0
L22S = class 0
K10V = class 0

Threshold query (protein stability index >= 2) on C19I
class 0
